experiment: chemical genetic growth profiling, strain panel (AID 1159580);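 note: tested at 20 µM; growth read once vehicle control cultures reached saturation at 30 °C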; details: S. cerevisiae deletion strains, growth OD, locus YBR171W, strain sec66, stronger effect = lower value
Out of some 5,500 compounds screened, about 2,000 (36%) were called active. Roughly 18% stayed inconclusive and do not appear here. The list shows a part of the results.
Lab note: cut-off is 1. Strictly less in normalized growth is met. Exactly 1 or more is not met.

[
  {
    "input_smiles": "NC(N)=Nc1nc(CSCCC(N)=NS(N)(=O)=O)cs1",
    "category_label": "met"
  }
]

Read the next record carefully.
Field: below-cutoff. Rule: recorded normalized growth strictly less than 1. Subject: COc1ccc(-c2cc(=O)c3c(O)cc(OC)c(OC)c3o2)c(OC)c1
not met
